Tested on: U2OS
Assay: fractional viability (live cells / total cells); higher = less cell death
Conditions: 1 µM; 72 h
measurement_kind: fractional viability
Answers are plain numbers.

Use the examples below as a reference point.
>>> recorded_value("CC1CCc2cc(F)cc3c(=O)c(C(=O)O)cn1c23 (stereo unspecified)")
0.971
>>> recorded_value("CCc1cnn2c(NCc3ccc[n+]([O-])c3)cc(N3CCCC[C@H]3CCO)nc12")
0.406
>>> recorded_value("O=C(O)CCNc1cc(N2CCc3ccccc3CC2)nc(-c2ccccn2)n1")
0.985
>>> recorded_value("CC(C)C[C@H](NC(=O)[C@H](Cc1ccccc1)NC(=O)c1cnccn1)B(O)O")
0.00348
>>> recorded_value("Nc1ccccc1NC(=O)c1ccc(CNC(=O)OCc2cccnc2)cc1")
0.933

Batch request: fractional viability for each of the following compounds.
1. CNc1ccc2oc(C[C@H]3O[C@@]4(CC[C@H]3C)O[C@H]([C@H](C)C(=O)c3ccc[nH]3)[C@H](C)C[C@H]4C)nc2c1C(=O)O
2. COCC[n+]1c2c(n(Cc3cnccn3)c1C)C(=O)c1ccccc1C2=O
3. Cc1cc(Nc2ccc(NC(=O)c3ccc(Nc4ccnc5ccccc45)cc3)cc2)nc(N)n1
4. CCC(=O)N1CCN(c2ccc(-n3c(=O)ccc4cnc5ccc(-c6cnc7ccccc7c6)cc5c43)cc2C(F)(F)F)CC1

0.959
0.00318
0.87
0.937
